Assay: Cmax in rat at 10 mg/kg, po
Format: ADME, organism-based
Set-up: dose 10 mg/kg, route oral
Settings: in vivo
recorded endpoint: Cmax (nM)
Return type: number; implicit unit nM.

Which Cmax is listed for "Cc1cc(C2CCN(CCCF)CC2)cc2[nH]c(-c3c(NCCn4cc(Cl)cn4)cc[nH]c3=O)nc12" ? 200

====

Molecular target: Cytochrome P450 1A2 (Homo sapiens, UniProt P05177)
Sequence (P05177 whole entry): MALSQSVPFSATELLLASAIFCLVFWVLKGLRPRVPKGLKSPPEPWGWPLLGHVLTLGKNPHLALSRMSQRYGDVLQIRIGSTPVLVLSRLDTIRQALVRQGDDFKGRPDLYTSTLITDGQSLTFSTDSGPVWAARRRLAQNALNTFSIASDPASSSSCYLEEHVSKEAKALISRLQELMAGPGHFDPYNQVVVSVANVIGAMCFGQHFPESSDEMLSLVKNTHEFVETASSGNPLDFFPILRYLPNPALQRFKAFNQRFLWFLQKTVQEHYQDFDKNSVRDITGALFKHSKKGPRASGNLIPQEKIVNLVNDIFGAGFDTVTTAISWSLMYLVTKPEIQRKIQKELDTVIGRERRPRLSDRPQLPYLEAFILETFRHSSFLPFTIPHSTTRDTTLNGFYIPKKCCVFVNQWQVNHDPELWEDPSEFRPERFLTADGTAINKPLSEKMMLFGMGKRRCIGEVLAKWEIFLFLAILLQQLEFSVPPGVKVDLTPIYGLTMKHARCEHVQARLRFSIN
Assay: Inhibition of human recombinant CYP1A2 in human liver microsomes
recorded endpoint: IC50

Name the recorded IC50 for "Cc1cc(C2CCN(CCCF)CC2)cc2[nH]c(-c3c(NCCn4cc(Cl)cn4)cc[nH]c3=O)nc12" . > 40 µM

====

Test: Total clearance in monkey at 2 mg/kg, iv and 10 mg/kg, po
Type: ADME, organism-based, Macaca mulatta
Conditions: rhesus monkey, in vivo
recorded endpoint: clearance
Could you give the number and then its unit, please?

Tell me the measured clearance of "Cc1cc(C2CCN(CCCF)CC2)cc2[nH]c(-c3c(NCCn4cc(Cl)cn4)cc[nH]c3=O)nc12" , please. 27 mL/min/kg

====

Test: Half life in mouse at 5 mg/kg, iv and 50 mg/kg, po
Format: ADME, organism-based
Conditions: in vivo
recorded endpoint: half-life (h)
Write down the numeric answer in h and omit the unit.

Recorded half-life for "Cc1cc(C2CCN(CCCF)CC2)cc2[nH]c(-c3c(NCCn4cc(Cl)cn4)cc[nH]c3=O)nc12" , please? 2.3

====

Assay: Cmax in mouse at 50 mg/kg, po
Format: ADME, organism-based
Set-up: dose 50 mg/kg, route oral
Settings: in vivo
recorded endpoint: Cmax (µM)
Numeric only. Scale: µM

# get_value(readout='Cmax', item= "Cc1cc(C2CCN(CCCF)CC2)cc2[nH]c(-c3c(NCCn4cc(Cl)cn4)cc[nH]c3=O)nc12" ) 2.3

====

Target: cAMP-dependent protein kinase catalytic subunit beta (Homo sapiens, UniProt P22694)
Assay: Inhibition of PKA-B
recorded endpoint: IC50 (µM)
State the answer as a number, implicitly in µM.

Find IC50 (cAMP-dependent protein kinase catalytic subunit beta (Homo sapiens, UniProt P22694)) for the entry "Cc1cc(C2CCN(CCCF)CC2)cc2[nH]c(-c3c(NCCn4cc(Cl)cn4)cc[nH]c3=O)nc12" 37.7

====

Molecular target: Cytochrome P450 2D6 (Homo sapiens)
Sequence (P10635 whole entry): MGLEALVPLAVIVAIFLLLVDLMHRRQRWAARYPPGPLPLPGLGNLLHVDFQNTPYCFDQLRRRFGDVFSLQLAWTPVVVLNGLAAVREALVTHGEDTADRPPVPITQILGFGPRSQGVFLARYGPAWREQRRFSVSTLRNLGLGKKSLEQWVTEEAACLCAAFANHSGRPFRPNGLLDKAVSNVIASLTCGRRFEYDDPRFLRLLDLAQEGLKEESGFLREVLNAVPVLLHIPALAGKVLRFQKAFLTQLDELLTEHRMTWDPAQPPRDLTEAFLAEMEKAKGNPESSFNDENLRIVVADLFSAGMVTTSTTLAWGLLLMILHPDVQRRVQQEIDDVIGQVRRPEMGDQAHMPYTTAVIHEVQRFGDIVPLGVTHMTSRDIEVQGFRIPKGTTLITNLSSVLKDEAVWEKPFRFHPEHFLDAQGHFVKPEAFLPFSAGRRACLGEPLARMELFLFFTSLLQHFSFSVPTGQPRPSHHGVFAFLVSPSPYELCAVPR
Experiment: Inhibition of human recombinant CYP2D6 in human liver microsomes
pIC50: −log10 of the molar value.
recorded endpoint: pIC50

// returns reported pIC50 for input "Cc1cc(C2CCN(CCCF)CC2)cc2[nH]c(-c3c(NCCn4cc(Cl)cn4)cc[nH]c3=O)nc12" < 4.40

====

Molecular target: Insulin-like growth factor 1 receptor (Homo sapiens, UniProt P08069)
Sequence (P08069 31-736 limits assumed): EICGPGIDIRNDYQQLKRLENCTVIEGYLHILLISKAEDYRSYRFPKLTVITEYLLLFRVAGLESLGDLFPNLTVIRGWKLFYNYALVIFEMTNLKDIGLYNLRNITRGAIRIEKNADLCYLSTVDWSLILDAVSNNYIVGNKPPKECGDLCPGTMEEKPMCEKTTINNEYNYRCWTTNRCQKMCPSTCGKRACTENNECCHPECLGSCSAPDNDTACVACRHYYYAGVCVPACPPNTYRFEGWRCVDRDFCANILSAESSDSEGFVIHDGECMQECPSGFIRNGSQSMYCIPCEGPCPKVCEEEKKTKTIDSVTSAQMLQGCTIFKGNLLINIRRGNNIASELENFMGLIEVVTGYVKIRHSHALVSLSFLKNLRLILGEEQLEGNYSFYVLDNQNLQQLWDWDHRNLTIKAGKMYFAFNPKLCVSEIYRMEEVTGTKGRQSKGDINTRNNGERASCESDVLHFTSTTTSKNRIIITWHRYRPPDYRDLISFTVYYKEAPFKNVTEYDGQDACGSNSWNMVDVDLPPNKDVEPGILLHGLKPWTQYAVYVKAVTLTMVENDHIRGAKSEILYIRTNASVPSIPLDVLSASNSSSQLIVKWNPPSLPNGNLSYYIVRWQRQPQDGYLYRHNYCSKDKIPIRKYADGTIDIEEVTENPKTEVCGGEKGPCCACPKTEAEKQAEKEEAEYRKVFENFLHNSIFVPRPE
Sequence (P08069 741-1367 limits assumed): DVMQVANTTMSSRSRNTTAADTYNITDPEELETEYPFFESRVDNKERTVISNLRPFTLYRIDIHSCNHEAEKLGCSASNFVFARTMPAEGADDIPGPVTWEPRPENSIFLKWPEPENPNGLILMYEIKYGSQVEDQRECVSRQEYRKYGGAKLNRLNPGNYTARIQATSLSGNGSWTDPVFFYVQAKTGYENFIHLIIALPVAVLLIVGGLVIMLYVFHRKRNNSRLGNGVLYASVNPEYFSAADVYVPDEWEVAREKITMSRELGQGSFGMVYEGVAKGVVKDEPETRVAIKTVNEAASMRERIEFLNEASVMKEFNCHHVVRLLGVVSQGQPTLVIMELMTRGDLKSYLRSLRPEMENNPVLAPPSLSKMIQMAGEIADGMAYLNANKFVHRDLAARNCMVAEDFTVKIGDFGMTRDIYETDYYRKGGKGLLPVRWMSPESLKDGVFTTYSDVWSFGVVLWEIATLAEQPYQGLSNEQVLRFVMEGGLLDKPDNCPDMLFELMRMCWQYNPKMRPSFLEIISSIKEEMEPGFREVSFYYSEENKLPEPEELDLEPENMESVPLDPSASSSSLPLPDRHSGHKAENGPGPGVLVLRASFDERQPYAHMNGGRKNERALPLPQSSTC
Assay: Inhibition of human IGF1R expressed in transgenic mouse IGFSal cells
recorded endpoint: pIC50
The scale used: pIC50 is minus the common logarithm of the concentration in molar units.

Find the recorded pIC50 belonging to "Cc1cc(C2CCN(CCCF)CC2)cc2[nH]c(-c3c(NCCn4cc(Cl)cn4)cc[nH]c3=O)nc12" and report it. 7.47

====

Target: MAP kinase-activated protein kinase 2 (Homo sapiens)
Sequence (P49137 whole entry): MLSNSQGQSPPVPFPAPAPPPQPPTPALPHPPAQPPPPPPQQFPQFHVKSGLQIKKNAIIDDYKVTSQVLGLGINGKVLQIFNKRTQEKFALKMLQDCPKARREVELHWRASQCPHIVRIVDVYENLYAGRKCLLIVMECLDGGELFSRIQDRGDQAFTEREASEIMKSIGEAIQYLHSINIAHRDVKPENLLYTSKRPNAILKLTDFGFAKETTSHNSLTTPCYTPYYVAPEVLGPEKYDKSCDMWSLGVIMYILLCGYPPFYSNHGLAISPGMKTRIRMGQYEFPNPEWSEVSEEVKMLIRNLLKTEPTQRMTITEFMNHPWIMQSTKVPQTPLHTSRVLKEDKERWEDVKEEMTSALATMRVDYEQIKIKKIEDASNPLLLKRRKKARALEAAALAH
Test: Inhibition of MK2
pIC50: −log10 of the molar value.
recorded endpoint: pIC50

Look up pIC50 with MAP kinase-activated protein kinase 2 (Homo sapiens) for this compound: "Cc1cc(C2CCN(CCCF)CC2)cc2[nH]c(-c3c(NCCn4cc(Cl)cn4)cc[nH]c3=O)nc12" < 4.30

====

Target: Fibroblast growth factor receptor 1 (Homo sapiens, UniProt P11362)
Sequence (P11362 whole entry): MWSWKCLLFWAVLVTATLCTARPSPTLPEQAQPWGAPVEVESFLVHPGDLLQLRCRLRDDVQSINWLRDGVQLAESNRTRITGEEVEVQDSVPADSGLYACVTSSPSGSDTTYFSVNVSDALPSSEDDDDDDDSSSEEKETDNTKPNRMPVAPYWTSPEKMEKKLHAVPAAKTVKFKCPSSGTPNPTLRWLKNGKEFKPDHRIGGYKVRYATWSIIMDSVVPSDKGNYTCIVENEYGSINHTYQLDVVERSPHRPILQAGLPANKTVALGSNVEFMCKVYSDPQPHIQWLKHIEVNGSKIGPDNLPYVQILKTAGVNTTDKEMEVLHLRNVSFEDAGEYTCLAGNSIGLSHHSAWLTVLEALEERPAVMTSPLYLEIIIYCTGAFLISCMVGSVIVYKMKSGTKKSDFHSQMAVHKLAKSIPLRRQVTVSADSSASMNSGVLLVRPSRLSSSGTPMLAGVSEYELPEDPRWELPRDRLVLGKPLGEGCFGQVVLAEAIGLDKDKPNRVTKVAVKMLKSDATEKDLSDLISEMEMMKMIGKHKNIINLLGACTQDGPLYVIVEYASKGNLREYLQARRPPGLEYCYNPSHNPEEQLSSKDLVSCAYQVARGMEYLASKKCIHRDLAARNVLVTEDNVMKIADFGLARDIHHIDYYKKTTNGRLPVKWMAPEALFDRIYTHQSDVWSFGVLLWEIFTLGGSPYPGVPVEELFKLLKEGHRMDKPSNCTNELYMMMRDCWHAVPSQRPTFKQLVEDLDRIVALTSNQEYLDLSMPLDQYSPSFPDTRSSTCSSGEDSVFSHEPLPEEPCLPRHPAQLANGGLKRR
Experiment: Inhibition of human recombinant FGFR1
recorded endpoint: IC50

Which IC50 value is on record for "Cc1cc(C2CCN(CCCF)CC2)cc2[nH]c(-c3c(NCCn4cc(Cl)cn4)cc[nH]c3=O)nc12" ? < 5 µM

====

Molecular target: Hepatocyte growth factor receptor (Homo sapiens, UniProt P08581)
Sequence (P08581 whole entry): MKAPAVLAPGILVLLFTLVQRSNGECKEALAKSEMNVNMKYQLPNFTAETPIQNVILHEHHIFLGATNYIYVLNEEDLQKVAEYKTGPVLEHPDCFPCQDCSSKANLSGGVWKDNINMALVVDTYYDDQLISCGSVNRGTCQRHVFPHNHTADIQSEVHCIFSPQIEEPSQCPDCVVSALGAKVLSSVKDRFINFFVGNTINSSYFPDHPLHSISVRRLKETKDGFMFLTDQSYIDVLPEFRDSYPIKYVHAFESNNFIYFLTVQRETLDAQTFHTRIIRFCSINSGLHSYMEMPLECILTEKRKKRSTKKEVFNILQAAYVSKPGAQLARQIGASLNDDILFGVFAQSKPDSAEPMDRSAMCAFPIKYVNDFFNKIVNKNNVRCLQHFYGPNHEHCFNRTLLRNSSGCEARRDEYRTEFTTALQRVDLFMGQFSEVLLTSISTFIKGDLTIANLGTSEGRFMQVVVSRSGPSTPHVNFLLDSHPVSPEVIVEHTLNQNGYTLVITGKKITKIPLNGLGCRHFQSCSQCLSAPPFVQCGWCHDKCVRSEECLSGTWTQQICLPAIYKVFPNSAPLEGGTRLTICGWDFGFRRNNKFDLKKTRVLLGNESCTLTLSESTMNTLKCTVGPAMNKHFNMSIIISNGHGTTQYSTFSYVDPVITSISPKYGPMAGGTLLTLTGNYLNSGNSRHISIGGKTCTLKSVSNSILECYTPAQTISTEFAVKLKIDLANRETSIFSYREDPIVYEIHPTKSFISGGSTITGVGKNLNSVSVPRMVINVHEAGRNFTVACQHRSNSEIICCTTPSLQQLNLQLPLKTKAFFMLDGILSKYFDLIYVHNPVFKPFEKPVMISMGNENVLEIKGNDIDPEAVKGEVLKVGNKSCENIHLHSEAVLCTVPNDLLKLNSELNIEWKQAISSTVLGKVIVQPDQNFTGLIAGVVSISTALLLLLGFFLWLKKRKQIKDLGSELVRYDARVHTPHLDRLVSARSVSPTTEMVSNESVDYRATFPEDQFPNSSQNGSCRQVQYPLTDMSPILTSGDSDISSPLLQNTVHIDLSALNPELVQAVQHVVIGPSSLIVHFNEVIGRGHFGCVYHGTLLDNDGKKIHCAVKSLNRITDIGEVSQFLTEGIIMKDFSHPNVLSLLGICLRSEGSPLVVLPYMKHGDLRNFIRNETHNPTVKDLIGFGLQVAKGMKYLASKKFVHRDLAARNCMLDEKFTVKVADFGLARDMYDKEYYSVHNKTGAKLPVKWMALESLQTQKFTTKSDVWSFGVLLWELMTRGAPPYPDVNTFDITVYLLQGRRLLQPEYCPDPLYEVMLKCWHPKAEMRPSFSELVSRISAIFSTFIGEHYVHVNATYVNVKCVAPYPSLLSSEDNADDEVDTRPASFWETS
recorded endpoint: pIC50
pIC50 field: float, defined as -log10 of concentration (mol/L).

What value of pIC50 has been reported for the following compound? "Cc1cc(C2CCN(CCCF)CC2)cc2[nH]c(-c3c(NCCn4cc(Cl)cn4)cc[nH]c3=O)nc12" 5.40

====

Experiment: Total clearance in mouse at 5 mg/kg, iv and 50 mg/kg, po
Assay type: ADME, organism-based
Conditions: in vivo
recorded endpoint: clearance
Record the result as a number with its unit.

I have this compound here, "Cc1cc(C2CCN(CCCF)CC2)cc2[nH]c(-c3c(NCCn4cc(Cl)cn4)cc[nH]c3=O)nc12" , and I need its recorded clearance. 159 mL/min/kg

====

Target: Protein kinase C alpha type (Homo sapiens)
recorded endpoint: pIC50
Please express pIC50 as -log10 of the molar concentration.

Reported pIC50 for Protein kinase C alpha type (Homo sapiens), given "Cc1cc(C2CCN(CCCF)CC2)cc2[nH]c(-c3c(NCCn4cc(Cl)cn4)cc[nH]c3=O)nc12" ? 4.96

====

This section presents compounds with their documented AUC at 4 h values.
Assay: AUC in mouse at 20 mg/kg after 4 hrs
Assay type: ADME, organism-based
Set-up: time < 4 hr, dose 20 mg/kg
Details: plasma
// units = µM·h; emit number, no label

// returns reported AUC at 4 h for input "Cc1cc(N2CCOCC2)cc2[nH]c(-c3c(NC[C@@H](O)c4cccc(Cl)c4)cc[nH]c3=O)nc12" 50

Find the recorded AUC at 4 h belonging to "Cc1cc(C2CCN(C)CC2)cc2[nH]c(-c3c(NC[C@@H](O)c4cccc(Cl)c4)cc[nH]c3=O)nc12" and report it. 1.2

Which AUC at 4 h is reported for this compound? "COc1ccc([C@H](O)CNc2cc[nH]c(=O)c2-c2nc3c(C)cc(C4CCN(CCCF)CC4)cc3[nH]2)cc1Cl" 0.28

# input compound: "COCCN1CCC(c2cc(C)c3nc(-c4c(NC[C@@H](O)c5ccc(OC)c(Cl)c5)cc[nH]c4=O)[nH]c3c2)CC1" ; wanted: its AUC at 4 h 0.49
